# target_under_test: HCV NS3/4A protease complex (Hepatitis C virus genotype 1a, UniProt P27958, C1454S/C1711G)
# Construct: DNA encoding the recombinant HCV NS3/4A protease complex (amino acids 1027 to 1711) for these strains; inferred from pET21b vector and Ni-NTA purification) (C); made in house; host or cells: Escherichia coli BL21 (DE3), pET21b
# Sequence (P27958 1027-1711 C1454S/C1711G, one chain of several): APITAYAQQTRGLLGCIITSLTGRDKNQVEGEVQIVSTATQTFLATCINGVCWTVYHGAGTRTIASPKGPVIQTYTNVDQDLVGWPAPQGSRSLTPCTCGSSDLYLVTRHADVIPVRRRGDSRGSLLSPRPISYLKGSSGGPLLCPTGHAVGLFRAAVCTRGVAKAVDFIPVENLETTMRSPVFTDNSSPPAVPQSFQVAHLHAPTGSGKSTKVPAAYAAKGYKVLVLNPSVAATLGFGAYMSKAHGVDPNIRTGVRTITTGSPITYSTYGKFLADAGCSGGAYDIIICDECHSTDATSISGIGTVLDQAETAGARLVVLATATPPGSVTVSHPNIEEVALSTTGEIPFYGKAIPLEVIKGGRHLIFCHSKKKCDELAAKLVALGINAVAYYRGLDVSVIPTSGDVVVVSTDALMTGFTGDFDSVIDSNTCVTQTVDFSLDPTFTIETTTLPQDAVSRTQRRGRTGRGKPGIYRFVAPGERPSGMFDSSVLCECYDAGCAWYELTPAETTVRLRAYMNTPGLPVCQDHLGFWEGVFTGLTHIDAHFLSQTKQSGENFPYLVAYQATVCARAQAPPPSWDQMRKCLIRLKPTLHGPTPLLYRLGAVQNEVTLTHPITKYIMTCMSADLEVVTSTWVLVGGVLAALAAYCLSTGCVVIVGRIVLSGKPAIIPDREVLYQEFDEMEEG
# test_details: FRET peptide assay to monitor HCV NS3/4A proteolytic activity
# Type: biochemical
# measurement_setup: class symbols; NS3/4A strain not stated
measured_metric: IC50

Exercise: For the compound C=C[C@@H]1C[C@]1(NC(=O)[C@@H]1C[C@]2(OC)CN1C(=O)[C@H](C(C)(C)C)NC(=O)OCCCCCc1ccccc1-c1ccc2cc1)C(=O)NS(=O)(=O)C1CC1 [Example 15] , give its reported IC50.
Key: 4 to 7 nM

Exercise: For the compound COc1ccc2c(c1)CCCC(C)(C)CCOC(=O)N[C@@H](C(C)(C)C)C(=O)N1C[C@@](OC)(C[C@H]1C(=O)N[C@]1(C(=O)NS(=O)(=O)C3CC3)C[C@H]1C1CC1)c1ccc-2cc1 [Example 11] , give its reported IC50.
Key: 1 to 3 nM

Exercise: For the compound C=C[C@@H]1C[C@]1(NC(=O)[C@@H]1C[C@]2(OC)CN1C(=O)[C@H](C(C)(C)C)NC(=O)OCC(C)(C)CCCCc1ccccc1-c1ccc2cc1)C(=O)NS(=O)(=O)C1CC1 [Example 6] , give its reported IC50.
Key: 1 to 3 nM

---

# target_under_test: HCV NS3/4A protease complex (Hepatitis C virus genotype 1a, UniProt P27958, C1454S/C1711G)
# Construct: DNA encoding the recombinant HCV NS3/4A protease complex (amino acids 1027 to 1711) for these strains; inferred from pET21b vector and Ni-NTA purification) (C); made in house; host or cells: Escherichia coli BL21 (DE3), pET21b
# test_details: FRET peptide assay to monitor HCV NS3/4A proteolytic activity
# Type: biochemical
# measurement_setup: class symbols; NS3/4A strain not stated
pIC50: −log10 of the molar value.
For each record, write down the corresponding pIC50.

Exercise: For the compound C=C[C@@H]1C[C@]1(NC(=O)[C@@H]1C[C@]2(OC)CN1C(=O)[C@H](C(C)(C)C)NC(=O)OCCC(C)(C)CCCc1ccccc1-c1ccc2cc1)C(=O)NS(=O)(=O)C1CC1 [Example 4] , give its reported pIC50.
Key: 8.52 to 9.00

Exercise: For the compound CO[C@@]12C[C@@H](C(=O)N[C@]3(C(=O)NS(=O)(=O)C4CC4)C[C@H]3C3CC3)N(C1)C(=O)[C@H](C(C)(C)C)NC(=O)OCCC(C)(C)CCCc1ccccc1-c1ccc2cc1 [Example 3] , give its reported pIC50.
Key: 8.15 to 8.40

Exercise: For the compound CO[C@@]12C[C@@H](C(=O)N[C@]3(C(=O)NS(=O)(=O)C4CC4)C[C@H]3C3CC3)N(C1)C(=O)[C@H](C(C)(C)C)NC(=O)OCC(C)(C)CCCCc1cc(N(C)C)ccc1-c1ccc2cc1 [Example 22] , give its reported pIC50.
Key: 8.52 to 9.00

---

# target_under_test: HCV NS3/4A protease complex (Hepatitis C virus genotype 1a, UniProt P27958, C1454S/C1711G)
# Construct: DNA encoding the recombinant HCV NS3/4A protease complex (amino acids 1027 to 1711) for these strains; inferred from pET21b vector and Ni-NTA purification) (C); made in house; host or cells: Escherichia coli BL21 (DE3), pET21b
# test_details: FRET peptide assay to monitor HCV NS3/4A proteolytic activity
# Format: biochemical
# measurement_setup: class symbols; NS3/4A strain not stated
# Excerpt: HCV NS3 protease complexes, derived from the BMS strain, H77 strain or J4L6S strain, were generated, as described below. These purified recombinant proteins were generated for use in a homogeneous assay (see below) to provide an indication of how effective compounds of the present disclosure would be in inhibiting HCV NS3 proteolytic activity. The H77 and J4L6S strains were used for production of recombinant NS3/4A protease complexes. […]
pIC50: −log10 of the molar value.
measured_metric: pIC50

Exercise: For the molecule CO[C@@]12C[C@@H](C(=O)N[C@]3(C(=O)NS(=O)(=O)C4CC4)C[C@H]3C3CC3)N(C1)C(=O)[C@H](C(C)(C)C)NC(=O)OCCCCCCCc1ccccc1-c1ccc2cc1 , give its reported pIC50.
Key: 8.52 to 9.00

Exercise: For the molecule CO[C@@]12C[C@@H](C(=O)N[C@]3(C(=O)NS(=O)(=O)C4CC4)C[C@H]3C(F)F)N(C1)C(=O)[C@H](C(C)(C)C)NC(=O)OCC(C)(C)CCCCc1ccccc1-c1ccc2cc1 , give its reported pIC50.
Key: 8.52 to 9.00

Exercise: For the molecule CO[C@@]12C[C@@H](C(=O)N[C@]3(C(=O)NS(=O)(=O)C4CC4)C[C@H]3C3CC3)N(C1)C(=O)[C@H](C(C)(C)C)NC(=O)OCC(C)(C)CCCCc1ccccc1-c1ccc2cc1 , give its reported pIC50.
Key: 8.15 to 8.40

---

# target_under_test: HCV NS3/4A protease complex (Hepatitis C virus genotype 1a, UniProt P27958, C1454S/C1711G)
# Construct: DNA encoding the recombinant HCV NS3/4A protease complex (amino acids 1027 to 1711) for these strains; inferred from pET21b vector and Ni-NTA purification) (C); made in house; host or cells: Escherichia coli BL21 (DE3), pET21b
# test_details: FRET peptide assay to monitor HCV NS3/4A proteolytic activity
# Assay type: biochemical
# measurement_setup: class symbols; NS3/4A strain not stated
measured_metric: IC50

Exercise: For the compound C=C[C@@H]1C[C@]1(NC(=O)[C@@H]1C[C@]2(OC)CN1C(=O)[C@H](C(C)(C)C)NC(=O)OCC(C)(C)CCCCc1cc(OC)ccc1-c1ccc2cc1)C(=O)NS(=O)(=O)C1CC1 , give its reported IC50.
Key: 1 to 3 nM

Exercise: For the compound C=C[C@@H]1C[C@]1(NC(=O)[C@@H]1C[C@]2(OC)CN1C(=O)[C@H](C(C)(C)C)NC(=O)OCCC(C)(C)CCCc1cc(OC)ccc1-c1ccc2cc1)C(=O)NS(=O)(=O)C1CC1 , give its reported IC50.
Key: 1 to 3 nM

Exercise: For the compound COc1ccc2c(c1)CCCCC(C)(C)COC(=O)N[C@@H](C(C)(C)C)C(=O)N1C[C@@](OC)(C[C@H]1C(=O)N[C@]1(C(=O)NS(=O)(=O)C3CC3)C[C@H]1C1CC1)c1ccc-2cc1 , give its reported IC50.
Key: 4 to 7 nM

---

# target_under_test: HCV NS3/4A protease complex (Hepatitis C virus genotype 1a, UniProt P27958, C1454S/C1711G)
# Construct: DNA encoding the recombinant HCV NS3/4A protease complex (amino acids 1027 to 1711) for these strains; inferred from pET21b vector and Ni-NTA purification) (C); made in house; host or cells: Escherichia coli BL21 (DE3), pET21b
# test_details: FRET peptide assay to monitor HCV NS3/4A proteolytic activity
# Format: biochemical
# measurement_setup: class symbols; NS3/4A strain not stated
For each record, write down the corresponding IC50.

Exercise: Answer briefly: IC50 recorded on HCV NS3/4A protease complex (Hepatitis C virus genotype 1a, UniProt P27958, C1454S/C1711G) for C=C[C@@H]1C[C@]1(NC(=O)[C@@H]1C[C@]2(OC)CN1C(=O)[C@H](C(C)(C)C)NC(=O)OCCCCCCCc1ccccc1-c1ccc2cc1)C(=O)NS(=O)(=O)C1CC1 [Example 19]
Key: 1 to 3 nM

Exercise: Answer briefly: IC50 recorded on HCV NS3/4A protease complex (Hepatitis C virus genotype 1a, UniProt P27958, C1454S/C1711G) for C=C[C@@H]1C[C@]1(NC(=O)[C@@H]1C[C@]2(OC)CN1C(=O)[C@H](C(C)(C)C)NC(=O)OCCCCc1cc2ccc1-c1ccccc1)C(=O)NS(=O)(=O)C1CC1 [Example 8]
Key: 8 to 11 nM

Exercise: Answer briefly: IC50 recorded on HCV NS3/4A protease complex (Hepatitis C virus genotype 1a, UniProt P27958, C1454S/C1711G) for CO[C@@]12C[C@@H](C(=O)N[C@]3(C(=O)NS(=O)(=O)C4CC4)C[C@H]3C3CC3)N(C1)C(=O)[C@H](C(C)(C)C)NC(=O)OCCCCc1cccc(c1)-c1cccc2c1 [Example 21]
Key: 1 to 3 nM

---

For each record, write down the corresponding pIC50.
# target_under_test: HCV NS3/4A protease complex (Hepatitis C virus genotype 1a, UniProt P27958, C1454S/C1711G)
# Construct: DNA encoding the recombinant HCV NS3/4A protease complex (amino acids 1027 to 1711) for these strains; inferred from pET21b vector and Ni-NTA purification) (C); made in house; host or cells: Escherichia coli BL21 (DE3), pET21b
# test_details: FRET peptide assay to monitor HCV NS3/4A proteolytic activity
# Type: biochemical
# measurement_setup: class symbols; NS3/4A strain not stated
pIC50: −log10 of the molar value.

Exercise: For the molecule CO[C@@]12C[C@@H](C(=O)N[C@]3(C(=O)NS(=O)(=O)C4CC4)C[C@H]3C3CC3)N(C1)C(=O)[C@H](C(C)(C)C)NC(=O)OCCCCCc1ccccc1-c1ccc2cc1 , give its reported pIC50.
Key: 7.96 to 8.10

Exercise: For the molecule CO[C@@]12C[C@@H](C(=O)N[C@]3(C(=O)NS(=O)(=O)C4CC4)C[C@H]3C3CC3)N(C1)C(=O)[C@H](C(C)(C)C)NC(=O)OCC(C)(C)CCCc1ccccc1-c1ccc2cc1 , give its reported pIC50.
Key: 8.15 to 8.40

Exercise: For the molecule CO[C@@]12C[C@@H](C(=O)N[C@]3(C(=O)NS(=O)(=O)C4CC4)C[C@H]3C3CC3)N(C1)C(=O)[C@H](C(C)(C)C)NC(=O)OCCCCCCc1ccc(Cl)cc1-c1ccc2cc1 , give its reported pIC50.
Key: 8.52 to 9.00
